Listed compounds paired with reported IC50
- measurement.target: PIK3CG (human)
- test.name: Assessment of PIK3CG Kinase Activity
attribute.measured: IC50

> print(dat)
                                    compound  attribute.measured  endpoint.value
 1  CC(=O)Nc1nc2c(s1)-c1c(cnn1-c1ccc(N3C4CCC3CC(O)C4)cc1)CC2 (configuration not stated)                IC50        < 800 nM
 2  CC(=O)Nc1nc2c(s1)-c1c(cnn1-c1ccc(C(=O)N[C@H](CC(C)C)C(N)=O)cc1Cl)CC2                IC50        < 800 nM
 3      CC(=O)Nc1nc2c(s1)-c1nn(C(N)=O)cc1CC2                IC50        < 800 nM
 4  CC(=O)Nc1nc2c(s1)-c1c(cnn1-c1ccc(C(=O)N3CCOCC3)cc1)CC2                IC50        < 800 nM
 5  CCN(CC)C(=O)C1CCCCN1C(=O)c1ccc(-n2ncc3c2-c2sc(NC(C)=O)nc2CC3)cc1 (configuration not stated)                IC50        < 800 nM
 6  CC(=O)Nc1nc2c(s1)-c1c(cnn1-c1ccc(C(=O)N[C@H]3CC[C@H](N(Cc4ccccc4)Cc4ccccc4)CC3)cc1)CC2                IC50        < 800 nM
 7  COC(=O)c1nn(-c2ccccc2F)c2c1CCc1nc(NC(C)=O)sc1-2                IC50        < 800 nM
 8  CCN1CCCC(NC(=O)c2ccc(-n3ncc4c3-c3sc(NC(C)=O)nc3CC4)cc2)C1 (configuration not stated)                IC50        < 800 nM
 9  CC(=O)Nc1nc2c(s1)-c1c(c(-c3c[nH]cn3)nn1-c1ccccc1C(F)(F)F)CC2                IC50        < 800 nM
10  CC(=O)Nc1nc2c(s1)-c1c(c([C@H]3CCCO3)nn1-c1ccccc1Br)CC2                IC50        < 800 nM
11  CC(=O)Nc1nc2c(s1)-c1c(c(-c3ccco3)nn1-c1ccc(C(=O)N[C@H]3CC[C@H](N4CCCC4)CC3)cc1Cl)CC2                IC50        < 800 nM
12  CC(=O)Nc1nc2c(s1)-c1c(cnn1-c1ccc(C(=O)N[C@H]3CC[C@H](N4CCCC4)CC3)cc1)CC2                IC50        < 800 nM

###

- measurement.target: PIK3CG (human) (UniProt P48736)
- Sequence (P48736 whole entry, looked up): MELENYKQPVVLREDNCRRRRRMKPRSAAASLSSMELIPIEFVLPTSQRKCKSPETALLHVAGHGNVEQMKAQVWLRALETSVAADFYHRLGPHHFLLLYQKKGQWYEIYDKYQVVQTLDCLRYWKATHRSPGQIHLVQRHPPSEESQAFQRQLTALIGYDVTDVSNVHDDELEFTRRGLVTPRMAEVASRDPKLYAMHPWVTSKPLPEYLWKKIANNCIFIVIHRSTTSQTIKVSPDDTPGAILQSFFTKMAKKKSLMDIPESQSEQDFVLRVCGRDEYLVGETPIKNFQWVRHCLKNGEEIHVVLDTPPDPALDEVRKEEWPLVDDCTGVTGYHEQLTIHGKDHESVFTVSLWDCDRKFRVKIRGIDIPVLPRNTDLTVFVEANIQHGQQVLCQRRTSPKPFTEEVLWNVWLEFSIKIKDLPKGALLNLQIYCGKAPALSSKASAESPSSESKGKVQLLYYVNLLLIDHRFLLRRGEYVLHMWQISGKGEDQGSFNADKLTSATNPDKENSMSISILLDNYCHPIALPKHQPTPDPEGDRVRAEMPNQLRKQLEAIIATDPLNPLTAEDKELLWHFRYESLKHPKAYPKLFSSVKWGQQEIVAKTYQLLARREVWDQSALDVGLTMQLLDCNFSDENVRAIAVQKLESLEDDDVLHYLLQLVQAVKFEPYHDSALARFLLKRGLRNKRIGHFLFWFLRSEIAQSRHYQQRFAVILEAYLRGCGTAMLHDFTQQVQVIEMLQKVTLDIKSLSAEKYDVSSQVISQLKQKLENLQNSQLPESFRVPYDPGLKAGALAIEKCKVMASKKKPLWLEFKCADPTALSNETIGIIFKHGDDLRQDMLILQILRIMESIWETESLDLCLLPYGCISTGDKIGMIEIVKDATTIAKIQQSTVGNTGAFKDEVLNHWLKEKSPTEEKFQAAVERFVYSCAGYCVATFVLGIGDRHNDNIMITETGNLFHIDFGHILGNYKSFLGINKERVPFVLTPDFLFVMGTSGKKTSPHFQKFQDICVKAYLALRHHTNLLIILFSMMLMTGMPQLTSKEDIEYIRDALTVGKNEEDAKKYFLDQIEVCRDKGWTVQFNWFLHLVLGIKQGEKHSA
attribute.measured: IC50

> print(dat)
                                    compound  endpoint.value
 1  CC(=O)Nc1nc2c(s1)-c1c(c(-c3ccccn3)nn1-c1ccccc1Br)CC2        < 800 nM
 2       CC(=O)Nc1nc2c(s1)-c1c(cnn1C(C)C)CC2        < 800 nM
 3  CC(=O)Nc1nc2c(s1)-c1c(cnn1-c1ccc(C(=O)NCc3nc4ccccc4[nH]3)cc1)CC2        < 800 nM
 4  O=C(Nc1nc2c(s1)-c1c(cnn1-c1ccccc1)CC2)N1CCOCC1        < 800 nM
 5  COC(=O)c1nn(-c2ccccc2C(F)(F)F)c2c1CCc1nc(NC(C)=O)sc1-2        < 800 nM
 6  CC(=O)Nc1nc2c(s1)-c1nc(N3CCC4(CN(C)C4)C3)ncc1CC2        < 800 nM
 7  CC(=O)Nc1nc2c(s1)-c1c(cnn1-c1ccc(C(=O)N[C@@H](C(N)=O)[C@H](C)O)cc1Cl)CC2        < 800 nM
 8  CC(=O)Nc1nc2c(s1)-c1c(cnn1-c1ccc(C(=O)Nc3nc4ccccc4[nH]3)cc1)CC2        < 800 nM
 9  CS(=O)(=O)c1cccc(Nc2nc3c(s2)-c2c(cnn2-c2ccccc2)CC3)c1        < 800 nM
10  CC(=O)Nc1nc2c(s1)-c1nn(-c3ccccc3F)c(-c3ccco3)c1CC2        < 800 nM
11     CC(=O)Nc1nc2c(s1)-c1c(cnn1CCC(C)C)CC2        < 800 nM
12  CN(C)CCCC(=O)Nc1nc2c(s1)-c1c(cnn1-c1ccccc1Cl)C2        < 800 nM
13  CC(=O)Nc1nc2c(s1)-c1cc(NC(=O)C(C)C)ccc1CC2        < 800 nM
14   CCc1ccccc1-n1ncc2c1-c1sc(NC(C)=O)nc1CC2        < 800 nM
15  CC(=O)Nc1nc2c(s1)-c1c(cnn1-c1ccc(C(=O)NCCN3CCNC3=O)cc1)CC2        < 800 nM
16  CC(=O)Nc1nc2c(s1)-c1c(c(C(=O)N(C)C)nn1-c1ccccc1Cl)CC2        < 800 nM
17  CC(=O)Nc1nc2c(s1)-c1c(cnn1-c1ccc(F)cc1F)CC2        < 800 nM
18  CC(=O)Nc1nc2c(s1)-c1c(cnn1-c1ccc(CC(=O)N(C)CC(C)O)cc1)CC2 (stereo not given)        < 800 nM
19  CC(=O)Nc1nc2c(s1)-c1c(cnn1-c1ccc(CC(=O)N(C)C)cc1)CC2        < 800 nM
20  CN(C)C(=O)Nc1nc2c(s1)-c1c(cnn1-c1ccccc1Cl)C2        < 800 nM
